molecular target: EGFR del19/T790M/C797S (Homo sapiens (Human), UniProt P00533, C797S/DEL746-750/T790M); test: HTRF enzyme assay, EGFR del19/T790M/C797S mutant enzyme; type: biochemical; conditions: enzyme from SignalChem, 37° C. 2 hours
Sequence (P00533 other isoform, or with tags, fused parts or gaps T790M/C797S/del 1-694/del 746-750 limits assumed): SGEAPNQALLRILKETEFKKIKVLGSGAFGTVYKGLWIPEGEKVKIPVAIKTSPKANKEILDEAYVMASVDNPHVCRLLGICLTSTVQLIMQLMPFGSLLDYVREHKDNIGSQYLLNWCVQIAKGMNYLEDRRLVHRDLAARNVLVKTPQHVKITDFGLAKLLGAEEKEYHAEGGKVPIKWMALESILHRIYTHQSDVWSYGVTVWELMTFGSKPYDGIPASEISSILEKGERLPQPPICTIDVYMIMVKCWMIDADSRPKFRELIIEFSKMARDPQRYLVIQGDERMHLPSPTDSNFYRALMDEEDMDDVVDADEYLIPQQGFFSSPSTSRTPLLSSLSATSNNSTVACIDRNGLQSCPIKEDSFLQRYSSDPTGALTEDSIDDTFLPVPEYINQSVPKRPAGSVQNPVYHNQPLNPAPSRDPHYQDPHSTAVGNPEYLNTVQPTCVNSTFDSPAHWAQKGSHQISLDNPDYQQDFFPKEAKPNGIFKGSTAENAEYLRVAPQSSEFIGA
pIC50: −log10 of the molar value.
measuredParameter: pIC50

Sample records with pIC50:
* COc1cc(N2CCC(N(C)C)CC2)ccc1Nc1ncc(Cl)c(Nc2cccc3c2N(S(C)(=O)=O)CCC3)n1 | > 9.00
* COc1cc(N2CCC(N3CCN(C)CC3)CC2)ccc1Nc1ncc(C(=O)OC(C)C)c(Nc2cccc3c2N(S(C)(=O)=O)CC3)n1 | 7.30
* COc1cc(N2CCC(N3CCN(C)CC3)CC2)ccc1Nc1ncc(Cl)c(Nc2cccc3c2N(S(C)(=O)=O)CCC3)n1 | > 9.00
* COc1cc(N(C)CCN(C)C)ccc1Nc1ncc(Cl)c(Nc2cccc3c2N(S(C)(=O)=O)CCC3)n1 | > 9.00
* COc1cc(N2CCC(N3CCN(C)CC3)CC2)ccc1Nc1ncc(C(F)(F)F)c(Nc2cccc3c2N(S(C)(=O)=O)CC3)n1 | > 9.00
* COC(=O)c1cnc(Nc2ccc(N3CCC(N4CCN(C)CC4)CC3)cc2OC)nc1Nc1cccc2c1N(S(C)(=O)=O)CC2 | 8.30

Proceed to the following item.
Indicate the recorded pIC50 value for this compound: COc1cc(N2CCC(N3CCN(C)CC3)CC2)ccc1Nc1ncc(F)c(Nc2cccc3c2N(S(C)(=O)=O)CC3)n1 > 9.00

---

biological target: HER2 A775_G776insYVMA (Homo sapiens (Human), UniProt P04626, INS775YVMA); test: HTRF enzyme assay, HER2 mutant enzyme; details: recombinant enzyme, 37° C. 2 hours
Sequence (P04626 other isoform, or with tags, fused parts or gaps del 1-675/ins YVMA behind 775 limits assumed): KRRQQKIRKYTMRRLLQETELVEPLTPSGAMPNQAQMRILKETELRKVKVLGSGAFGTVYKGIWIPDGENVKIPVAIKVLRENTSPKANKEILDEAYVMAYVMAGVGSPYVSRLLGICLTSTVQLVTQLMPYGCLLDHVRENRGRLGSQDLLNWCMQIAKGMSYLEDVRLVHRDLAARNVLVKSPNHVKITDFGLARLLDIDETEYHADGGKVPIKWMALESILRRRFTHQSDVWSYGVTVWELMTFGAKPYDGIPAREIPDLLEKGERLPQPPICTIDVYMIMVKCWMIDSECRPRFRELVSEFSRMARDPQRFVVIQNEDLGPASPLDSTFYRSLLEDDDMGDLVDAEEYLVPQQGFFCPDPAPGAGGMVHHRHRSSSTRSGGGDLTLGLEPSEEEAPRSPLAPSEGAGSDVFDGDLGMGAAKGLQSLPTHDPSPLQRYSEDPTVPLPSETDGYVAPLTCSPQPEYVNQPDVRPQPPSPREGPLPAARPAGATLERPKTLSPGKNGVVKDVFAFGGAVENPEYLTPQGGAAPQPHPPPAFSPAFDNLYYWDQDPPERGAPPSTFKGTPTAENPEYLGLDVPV
pIC50: −log10 of the molar value.
Classify as follows. Reported pIC50 greater than or equal to 8: MET. Reported pIC50 below: NOT MET.

Look over these answered cases.
• COc1cc(N2CCC(N3CCN(C)CC3)CC2)ccc1Nc1ncc(Cl)c(Nc2cccc3c2N(S(C)(=O)=O)CCC3)n1 [Example 5] = MET
• COc1cc(N2CCC(N3CCN(C)CC3)CC2)ccc1Nc1ncc(Cl)c(Nc2cccc3c2N(S(C)(=O)=O)CC3)n1 [Example 2] = MET
• CCC(=O)N1CCCc2cccc(Nc3nc(Nc4ccc(N5CCC(N6CCN(C)CC6)CC5)cc4OC)ncc3Cl)c21 [Example 16] = NOT MET
• CCS(=O)(=O)N1CCc2cccc(Nc3nc(Nc4ccc(N5CCC(N6CCN(C)CC6)CC5)cc4OC)ncc3Cl)c21 [Example 13] = NOT MET
• CCC(=O)N1CCc2cccc(Nc3nc(Nc4ccc(N5CCC(N6CCN(C)CC6)CC5)cc4OC)ncc3Cl)c21 [Example 14] = NOT MET

Does COc1cc(N2CCC(N3CCN(C)CC3)CC2)ccc1Nc1ncc(Cl)c(Nc2cccc3c2N(C(C)=O)CCC3)n1 [Example 15] have a reported pIC50 of at least 8? NOT MET

Does COc1cc(N2CCC(N3CCNCC3)CC2)ccc1Nc1ncc(Cl)c(Nc2cccc3c2N(S(C)(=O)=O)CC3)n1 [Example 17] have a reported pIC50 of at least 8? MET

Does COc1cc(N2CCC(N3CCN(C)CC3)CC2)ccc1Nc1ncc(Cl)c(Nc2cccc3c2N(C(C)=O)CC3)n1 [Example 12] have a reported pIC50 of at least 8? NOT MET
